Reference source for all entries: ChEMBL document CHEMBL1156560

- Tested on: Hepatitis C virus
- protocol: Inhibition of HCV 1b BK delta21 NS5B delta21 polymerase
- Parameters: species or system Hepatitis C virus subtype 1b
Field: pIC50. Provide a value for each of the compounds that follow.
Give bare numbers, as −log10 of the molar value.

Count: 5. Required value per item: pIC50.
1. CC(C)CCn1nc(-c2cccs2)c(O)c(C2=CS(=O)(=O)c3cc(N(C)S(C)(=O)=O)ccc3N2)c1=O
2. CS(=O)(=O)Nc1ccc2c(c1)S(=O)(=O)C=C(c1c(O)c(-c3cccs3)nn(CC3CC3)c1=O)N2
3. CS(=O)(=O)Nc1ccc2c(c1)S(=O)(=O)C=C(c1c(O)c(-c3cccs3)nn(Cc3ccccc3)c1=O)N2
4. CS(=O)(=O)Nc1ccc2c(c1)S(=O)(=O)C=C(c1c(O)c(-c3cccs3)nn(CC3CCCC3)c1=O)N2
5. Cc1ccc(-c2nn(Cc3ccccc3)c(=O)c(C3=CS(=O)(=O)c4ccccc4N3)c2O)s1

Result:
1: 5.80; 2: 7.82; 3: 7.74; 4: 7.41; 5: 4.92

----------
- protocol: Apparent permeability from apical to basolateral side in human Caco-2 cells at 10 uM
- Format: ADME, cell-based
experimental.readout: Papp A→B at 10 µM (×10⁻⁶ cm/s)
One number for each entry, in ×10⁻⁶ cm/s.

The examples below pair each entry with its known result.
- smiles.code: "CC(C)CCn1c(=O)c(C2=CS(=O)(=O)c3cc(NS(C)(=O)=O)ccc3N2)c(O)c2cccn21"
  Papp A→B at 10 µM (×10⁻⁶ cm/s): 0.027
- smiles.code: "Cc1ccc(-c2nn(Cc3ccccc3)c(=O)c(C3=Nc4ccccc4S(=O)(=O)N3)c2O)s1"
  Papp A→B at 10 µM (×10⁻⁶ cm/s): 1.3
- smiles.code: "CC(C)CCn1c(=O)c(C2=CS(=O)(=O)c3cc(N(C)S(C)(=O)=O)ccc3N2)c(O)c2cccn21"
  Papp A→B at 10 µM (×10⁻⁶ cm/s): 0.012
- smiles.code: "CC(C)CCn1nc(-c2cccs2)c(O)c(C2=CS(=O)(=O)c3cc(NS(C)(=O)=O)ccc3N2)c1=O"
  Papp A→B at 10 µM (×10⁻⁶ cm/s): 0.012

Problem: Tell me Papp A→B at 10 µM reported for "Cc1ccc(-c2nn(Cc3ccccc3)c(=O)c(C3=CS(=O)(=O)c4ccccc4N3)c2O)s1"
Result: 0.3

----------
Field: CC50 at 72 h. Provide a value for each of the compounds that follow.
- protocol: Cytotoxicity against human Huh7/C24 cells after 72 hrs
- Type: cell-based, Huh-7

The examples below pair each entry with its known result.
- smiles.code: "CC(C)(C)CCn1c(=O)c(C2=CS(=O)(=O)c3cc(NS(C)(=O)=O)ccc3N2)c(O)c2cccn21"
  CC50 at 72 h: "> 1000 nM"
- smiles.code: "CS(=O)(=O)Nc1ccc2c(c1)S(=O)(=O)C=C(c1c(O)c(-c3cccs3)nn(CC3CCCC3)c1=O)N2"
  CC50 at 72 h: "> 1000 nM"
- smiles.code: "CC(C)CCn1c(=O)c(C2=CS(=O)(=O)c3cc(NS(C)(=O)=O)ccc3N2)c(O)c2cccn21"
  CC50 at 72 h: "> 1000 nM"
- smiles.code: "CC(C)CCn1nc(-c2cccs2)c(O)c(C2=CS(=O)(=O)c3cc(NS(C)(=O)=O)ccc3N2)c1=O"
  CC50 at 72 h: "> 1000 nM"
- smiles.code: "CC(C)CCn1nc(-c2ccccc2)c(O)c(C2=CS(=O)(=O)c3cc(NS(C)(=O)=O)ccc3N2)c1=O"
  CC50 at 72 h: "> 33000 nM"

Count: 4. Required value per item: CC50 at 72 h.
1. CS(=O)(=O)Nc1ccc2c(c1)S(=O)(=O)C=C(c1c(O)c(-c3cccs3)nn(Cc3ccccc3)c1=O)N2
2. CC(C)CCn1c(=O)c(C2=CS(=O)(=O)c3cc(N(C)S(C)(=O)=O)ccc3N2)c(O)c2cccn21
3. CCC(C)(C)CCn1nc(-c2cccs2)c(O)c(C2=CS(=O)(=O)c3cc(NS(C)(=O)=O)ccc3N2)c1=O
4. CS(=O)(=O)Nc1ccc2c(c1)S(=O)(=O)C=C(c1c(O)c(-c3cccs3)nn(CC3CC3)c1=O)N2

Result:
> 1000 nM
> 33000 nM
> 1000 nM
> 1000 nM

----------
- Tested on: Hepatitis C virus
- protocol: Antiviral activity against HCV 1b BK delta21 in Huh7/C24 cells after 72 hrs by replicon assay
- Format: functional, organism-based, Hepacivirus hominis
- test.context: genotype 1b BK, Huh7/C24, 72 h
Heads up, the class ranges for EC50 are I: < 4 nM; II: ≥ 4 nM and < 20 nM; III: ≥ 20 nM

Here's what some known entries look like.
- smiles.code: "CS(=O)(=O)Nc1ccc2c(c1)S(=O)(=O)C=C(c1c(O)c(-c3cccs3)nn(CC3CCCC3)c1=O)N2"
  experimental.target: "Hepatitis C virus"
  assigned.label: "II"
- smiles.code: "CS(=O)(=O)Nc1ccc2c(c1)S(=O)(=O)C=C(c1c(O)c(-c3cccs3)nn(CC3CC3)c1=O)N2"
  experimental.target: "Hepatitis C virus"
  assigned.label: "I"
- smiles.code: "CC(C)CCn1nc(-c2cccs2)c(O)c(C2=CS(=O)(=O)c3cc(NS(C)(=O)=O)ccc3N2)c1=O"
  experimental.target: "Hepatitis C virus"
  assigned.label: "I"
- smiles.code: "CC(C)CCn1c(=O)c(C2=Nc3ccc(NS(C)(=O)=O)cc3S(=O)(=O)N2)c(O)c2cccn21"
  experimental.target: "Hepatitis C virus"
  assigned.label: "II"

Problem: Hi there! Could you help me figure out the category for "CC(C)CCn1c(=O)c(C2=CS(=O)(=O)c3cc(NS(C)(=O)=O)ccc3N2)c(O)c2cccn21" please?
Result: II

Problem: Hi there! Could you help me figure out the category for "CC(C)(C)CCn1c(=O)c(C2=CS(=O)(=O)c3cc(NS(C)(=O)=O)ccc3N2)c(O)c2cccn21" please?
Result: I

Problem: Hi there! Could you help me figure out the category for "CS(=O)(=O)Nc1ccc2c(c1)S(=O)(=O)C=C(c1c(O)c(-c3cccs3)nn(Cc3ccccc3)c1=O)N2" please?
Result: III

Problem: Hi there! Could you help me figure out the category for "CC(C)CCn1nc(-c2ccccc2)c(O)c(C2=CS(=O)(=O)c3cc(NS(C)(=O)=O)ccc3N2)c1=O" please?
Result: III

Problem: Hi there! Could you help me figure out the category for "CC(C)CCn1c(=O)c(C2=CS(=O)(=O)c3cc(N(C)S(C)(=O)=O)ccc3N2)c(O)c2cccn21" please?
Result: III

Problem: Hi there! Could you help me figure out the category for "CCC(C)(C)CCn1nc(-c2cccs2)c(O)c(C2=CS(=O)(=O)c3cc(NS(C)(=O)=O)ccc3N2)c1=O" please?
Result: I

----------
Field: Papp A→B at 10 µM. Provide a value for each of the compounds that follow.
- protocol: Apparent permeability from apical to basolateral side in human Caco-2 cells at 10 uM
- Format: ADME, cell-based
Answers are plain numbers, in ×10⁻⁶ cm/s.

The examples below pair each entry with its known result.
- smiles.code: "CC(C)CCn1nc(-c2cccs2)c(O)c(C2=NS(=O)(=O)c3cc(N(C)S(C)(=O)=O)ccc3N2)c1=O"
  experimental.readout: "Papp A→B at 10 µM"
  number: 0.2
- smiles.code: "CC(C)CCn1nc(-c2cccs2)c(O)c(C2=Nc3ccc(NS(C)(=O)=O)cc3S(=O)(=O)N2)c1=O"
  experimental.readout: "Papp A→B at 10 µM"
  number: 0.02
- smiles.code: "CC(C)CCn1nc(-c2ccccc2)c(O)c(C2=CS(=O)(=O)c3cc(NS(C)(=O)=O)ccc3N2)c1=O"
  experimental.readout: "Papp A→B at 10 µM"
  number: 0.019

# next compound below
Problem: Tell me Papp A→B at 10 µM reported for "CC(C)(C)CCn1c(=O)c(C2=CS(=O)(=O)c3cc(NS(C)(=O)=O)ccc3N2)c(O)c2cccn21"
Result: 0.3

----------
Field: half-life. Provide a value for each of the compounds that follow.
- protocol: Metabolic stability in human liver microsomes assessed as half life
- Type: ADME, Microsome
Answers are plain numbers, in min.

- smiles.code: "CCC(C)(C)CCn1nc(-c2cccs2)c(O)c(C2=CS(=O)(=O)c3cc(NS(C)(=O)=O)ccc3N2)c1=O"
  scale.unit: "min"
  half-life: 30

Problem: Tell me half-life reported for "CC(C)CCn1nc(-c2ccccc2)c(O)c(C2=CS(=O)(=O)c3cc(NS(C)(=O)=O)ccc3N2)c1=O"
Result: 36

----------
- protocol: Metabolic stability in monkey liver microsomes
- Assay type: ADME, Macaca mulatta, Microsome
- test.context: rhesus monkey
experimental.readout: half-life (min)
Numbers only, in min.

The examples below pair each entry with its known result.
- smiles.code: "CC(C)CCn1nc(-c2ccccc2)c(O)c(C2=CS(=O)(=O)c3cc(NS(C)(=O)=O)ccc3N2)c1=O"
  number: 34
- smiles.code: "CC(C)CCn1nc(-c2cccs2)c(O)c(C2=CS(=O)(=O)c3cc(NS(C)(=O)=O)ccc3N2)c1=O"
  number: 20
- smiles.code: "Cc1ccc(-c2nn(Cc3ccccc3)c(=O)c(C3=CS(=O)(=O)c4ccccc4N3)c2O)s1"
  number: 37

Count: 2. Required value per item: half-life.
1. CC(C)(C)CCn1c(=O)c(C2=CS(=O)(=O)c3cc(NS(C)(=O)=O)ccc3N2)c(O)c2cccn21
2. CC(C)CCn1c(=O)c(C2=CS(=O)(=O)c3cc(N(C)S(C)(=O)=O)ccc3N2)c(O)c2cccn21

Result:
4.7
20
